assayed system: hDHODH (Homo sapiens, UniProt Q02127)
Construct: The plasmid pET-19b–hDHODH (Met30-Arg396) was transformed; inferred from the pET-19b vector and from purification on a chelating column with imidazole elution) (N); made in house; host or cells: E. coli BL21 (DE3)
Sequence (Q02127 29-395 limits assumed): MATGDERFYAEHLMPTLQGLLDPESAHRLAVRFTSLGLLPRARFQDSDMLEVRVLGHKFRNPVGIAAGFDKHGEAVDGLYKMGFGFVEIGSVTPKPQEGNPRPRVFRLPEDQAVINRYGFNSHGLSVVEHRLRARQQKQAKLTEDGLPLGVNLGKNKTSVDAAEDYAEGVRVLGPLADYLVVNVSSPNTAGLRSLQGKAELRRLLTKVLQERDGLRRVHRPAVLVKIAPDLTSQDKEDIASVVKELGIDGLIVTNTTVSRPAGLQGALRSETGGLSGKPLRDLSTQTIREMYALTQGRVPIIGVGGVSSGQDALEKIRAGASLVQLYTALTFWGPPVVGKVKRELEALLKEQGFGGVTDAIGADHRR
method description: hDHODH enzyme inhibition assay (DCIP/UQ0, dihydroorotate-initiated)
Type: biochemical
assay context: compound at 10 µM; 10 nM purified hDHODH
readout name: inhibition at 10 µM (%)

smiles: COC(=O)/C(C#N)=C1\SCC(=O)N1c1ccc(C(=O)Nc2ccc(OC)cc2)cc1
readout name: inhibition at 10 µM
uom: %
assay value: 55.4
//
smiles: COC(=O)/C(C#N)=C1\SCC(=O)N1c1ccc(C(=O)Nc2cccc(C(=O)O)c2)cc1
readout name: inhibition at 10 µM
uom: %
assay value: 23.5
//
smiles: COC(=O)/C(C#N)=C1\SCC(=O)N1c1ccc(-c2ccccc2)cc1F
readout name: inhibition at 10 µM
uom: %
assay value: 58.8
//
smiles: COC(=O)/C(C#N)=C1\SCC(=O)N1c1ccc(C(C)(C)C)cc1
readout name: inhibition at 10 µM
uom: %
assay value: 79.1
//
smiles: COC(=O)/C(C#N)=C1\SCC(=O)N1c1ccc(-c2cccc(OC)c2)cc1F
readout name: inhibition at 10 µM
uom: %
assay value: 63.3
//
smiles: COC(=O)/C(C#N)=C1\SCC(=O)N1c1ccc(Oc2ccccc2)cc1
readout name: inhibition at 10 µM
uom: %
assay value: 52
//
smiles: COC(=O)/C(C#N)=C1\SCC(=O)N1c1ccc(Oc2ccccc2OC)cc1
readout name: inhibition at 10 µM
uom: %
assay value: 44.7
//
smiles: COC(=O)/C(C#N)=C1\SCC(=O)N1c1ccc(C(=O)Nc2ccccc2C(=O)O)cc1
readout name: inhibition at 10 µM
uom: %
assay value: 34.5

----------
assayed system: hDHODH (Homo sapiens, UniProt Q02127)
Construct: The plasmid pET-19b–hDHODH (Met30-Arg396) was transformed; inferred from the pET-19b vector and from purification on a chelating column with imidazole elution) (N); made in house; host or cells: E. coli BL21 (DE3)
method description: hDHODH enzyme inhibition assay (DCIP/UQ0, dihydroorotate-initiated);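 note: recombinant hDHODH (Met30–Arg396) in HEPES pH 8.0 buffer with KCl and Triton X-100, reaction started by 500 µM dihydroorotate, inhibition from rate with inhibitor relative to uninhibited rate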
Type: biochemical
assay context: compound at 10 µM; 10 nM purified hDHODH
Measured inhibition at 10 µM accompanies every entry in the list below.
readout name: inhibition at 10 µM (%)

smiles: COC(=O)/C(C#N)=C1\SCC(=O)N1c1ccc(-c2cccc(C#N)c2)cc1F
readout name: inhibition at 10 µM
assay value: 50.2
//
smiles: COC(=O)/C(C#N)=C1\SCC(=O)N1c1ccc(OCc2ccccc2)cc1
readout name: inhibition at 10 µM
assay value: 55.4
//
smiles: COC(=O)/C(C#N)=C1\SCC(=O)N1c1ccc(C(=O)NCc2ccccc2C(=O)O)cc1
readout name: inhibition at 10 µM
assay value: 36.8
//
smiles: COC(=O)/C(C#N)=C1\SCC(=O)N1c1ccc(OCc2cccc(C(=O)O)c2)cc1
readout name: inhibition at 10 µM
assay value: 36.2
//
smiles: COC(=O)/C(C#N)=C1\SCC(=O)N1c1ccc(C(=O)NCc2cccc(C(=O)O)c2)cc1
readout name: inhibition at 10 µM
assay value: 44
//
smiles: COC(=O)/C(C#N)=C1\SCC(=O)N1c1ccc(-c2ccccc2)cc1
readout name: inhibition at 10 µM
assay value: 73.8
//
smiles: COC(=O)/C(C#N)=C1\SCC(=O)N1c1ccc(C(=O)Nc2ccc(I)cc2)cc1
readout name: inhibition at 10 µM
assay value: 38.1
//
smiles: COC(=O)/C(C#N)=C1\SCC(=O)N1c1ccc(C(=O)Nc2ccc(F)c(C#N)c2)cc1
readout name: inhibition at 10 µM
assay value: 53.6
//
smiles: COC(=O)/C(C#N)=C1\SCC(=O)N1c1ccc2ccccc2c1
readout name: inhibition at 10 µM
assay value: 80.3
//
smiles: COC(=O)/C(C#N)=C1\SCC(=O)N1c1ccc(-c2ccccc2C)cc1F
readout name: inhibition at 10 µM
assay value: 57.6
//
smiles: COC(=O)/C(C#N)=C1\SCC(=O)N1c1ccc(C(=O)Nc2ccc(C(C)(C)C)c(C(=O)O)c2)cc1
readout name: inhibition at 10 µM
assay value: 30.3
